System: A498
Measurement Notes: NCI tumour cell line growth inhibition, 48 h
Calls of active or inactive are those of the source. Rule as the data show it: active = GI50 up to about 1.1 µM and inactive = higher.
Measured Property: GI50

Consider the worked cases shown below.
CCc1cc2c(c3c1CCCC3=O)CC1(C2)Cc2cc(CC)c3c(c2C1)C(=O)CCC3
> 100 µM (inactive)
Cc1cn([C@@H]2O[C@H](CO[Si](C)(C)C(C)(C)C)[C@]3(O[C@H]3C(=O)NN)[C@H]2O[Si](C)(C)C(C)(C)C)c(=O)[nH]c1=O
16.9 µM (inactive)
CCCCCCCCCCCCCCNC(=O)CCC(NC(=O)c1ccc(N(C)Cc2cnc3nc(N)nc(N)c3n2)cc1)C(=O)NCCCCCCCCCCCCCC (configuration not stated)
14.5 µM (inactive)
c1cc2c3c(c1)c1cc4c(cc1c[n+]3CC2)OCO4 [ANHYDROLYCORINIUM CHLORIDE]
2.37 µM (inactive)
COC(=O)C1=CO[C@@H](OC2CC(CO)C(O)C(O)C2O)[C@@H]2[C@@H](C)[C@@H](OC(=O)/C=C/c3ccccc3)[C@@H](O)[C@H]12.COC(=O)C1=CO[C@@H](OC2CC(CO)C(O)C(O)C2O)[C@@H]2[C@@H](C)[C@@H](OC(=O)c3ccccc3)[C@@H](O)[C@H]12 (some centres not stated)
> 100 µM (inactive)
C[N+]1(CC[N+]2(C)CCCC2c2cccnc2)CCCC1c1cccnc1 (configuration not stated)
> 100 µM (inactive)

Lab note: `OC(C#Cc1ccccc1)(c1ccccc1)c1ccccc1` gave GI50 of 27.1 µM (inactive)

----------
Test system: U-251
Measurement Notes: NCI tumour cell line growth inhibition, 48 h
Activity calls are given as the source filed them. Cut-off read from the data, not from the text of the source: active = GI50 up to about 1.1 µM and inactive = higher.
Lab note: assign the record to one of active, inactive

Cc1ccc([N+](=O)[O-])cc1S(=O)(=O)Nc1ccc(C2=NN(S(=O)(=O)c3cc([N+](=O)[O-])ccc3C)C(c3ccccc3O)C2)cc1 (configuration not stated)
inactive
CN(CCCNC(=O)c1nn(-c2ccc(Cl)cc2Cl)c2c1Cc1ccccc1-2)CCCNC(=O)c1nn(-c2ccc(Cl)cc2Cl)c2c1Cc1ccccc1-2
inactive
O=C1/C(=C/c2cccc([N+](=O)[O-])c2)COc2ccc(Br)cc21
inactive
CCc1cc2c(c3c1CCCC3=O)CC1(C2)Cc2cc(CC)c3c(c2C1)C(=O)CCC3
inactive
C/C1=N\[N-]C(=O)c2ccccc2C(=O)N/N=C(\C)c2cccc1n2.O=[N+]([O-])[O-].[Zn+2]
inactive

Req: # fetch the recorded call for `CCC(=O)Oc1c2ccsc2c(OC(=O)CC)c2ccsc12` here
Resp: active

Req: # fetch the recorded call for `Cc1ccc2c(sc(-c3ccc4c(c3)sc(-c3ccc(N(C)C)cc3)[n+]4C)[n+]2C)c1S(=O)(=O)O.Cc1ccc2c(sc(-c3ccc4c(c3)sc(-c3ccc5c(c3)sc(-c3ccc(N(C)C)cc3)[n+]5C)[n+]4C)[n+]2C)c1S(=O)(=O)O` here
Resp: inactive

----------
Recorded measurements of GI50, one per entry
System: MCF7
Measurement Notes: NCI tumour cell line growth inhibition, 48 h
Calls of active or inactive are those of the source. No stated cut-off is given here; in the data, active = GI50 up to about 1.1 µM and inactive = higher. Where a SMILES comes first, the peptide text is derived from it. Bridges are numbered along the chain shown (N, C = ends). [ ]: non-standard residue; d: D form. The star is where a group is joined. ξ: configuration not given here. PhAc = O=C(Cc1ccccc1)*; ξP = O=C(O)C1CCCN1

O=C(Cc1ccccc1)N[C@@H]1COC(=O)C2CCCN2C(=O)[C@@H]2CCCN2C1=O (stereo partly drawn) (PhAc-[dS]-Pro-[ξP]; ester 1-C)
> 100 µM (inactive)
COC(=O)[C@]1(Cc2ccc3ccccc3c2)CCCCCCN1C(=O)c1ccccc1
> 32.2 µM (inactive)
COP(=O)(Cc1ccc(/C=C/C#N)o1)OC
> 100 µM (inactive)
O=Cc1c2c(cc3c1CC1(C3)Cc3cc4c(c(C=O)c3C1)CCCC4)CCCC2
> 31.6 µM (inactive)
O=C(O)[C@@H]1C[C@@H](O)CN1C(=O)OCc1ccccc1
> 100 µM (inactive)

Lab note: COc1ccc(C2=NOC(N)(c3ccc(OC)cc3)C2)cc1 (stereo not drawn) gave GI50 of > 100 µM (inactive)

Lab note: `COc1nc(C#CCCCC#N)nc(OC)n1` gave GI50 of 5.27 µM (inactive)

Lab note: `COc1ccc(OC)c(CSc2ccc(OC)c(OC)c2)c1` gave GI50 of > 100 µM (inactive)

Lab note: O=C1C(/N=N/c2ccc(-c3nc4ccccc4[nH]3)cc2)NC(=S)N1c1ccccc1 (stereo not drawn) gave GI50 of 10.5 µM (inactive)

Lab note: `O=C1C=CC=C/C1=C1\N=C(c2ccccc2OCC(=O)c2ccc(Br)cc2)SS1` gave GI50 of > 100 µM (inactive)
